# MEASUREMENT NOTES: The drug is tested on WLS-052 corresponding to human gut metagenome with ENA study accession number: PRJEB37062 and ENA sample accession number: ERS12561747 for biotransformation under anaerobic condition. The drug concentrations were measured over 9 timepoints collected between 0 and 24 hours of incubation by liquid-chromatography-coupled mass spectrometry (LC–MS); further: call rule not given here
# CONDITION NOTES: 2 µM
ENDPOINT LABEL: Bacterial Biotransformation

// worked examples, Bacterial Biotransformation included
# COMPOUND, Bacterial Biotransformation
records = [
    ("CC(=O)O[C@H]1C(=O)[C@@]2(C)[C@H]([C@H](OC(=O)c3ccccc3)[C@]3(O)C[C@H](OC(=O)[C@H](O)[C@@H](NC(=O)c4ccccc4)c4ccccc4)C(C)=C1C3(C)C)[C@]1(OC(C)=O)CO[C@@H]1C[C@@H]2O", "Compound metabolized"),
    ("COc1ccc(C(CN(C)C)C2(O)CCCCC2)cc1 (stereo unspecified)", "Compound NOT metabolized"),
    ("Nc1nnc(-c2cccc(Cl)c2Cl)c(N)n1", "Compound NOT metabolized"),
    ("c1ccc2[nH]c(-c3cscn3)nc2c1", "Compound NOT metabolized"),
]

Query: Look at this compound and give its reported Bacterial Biotransformation. `COc1ccc([C@@H]2Sc3ccccc3N(CCN(C)C)C(=O)[C@@H]2OC(C)=O)cc1`
Reply: Compound NOT metabolized

Query: Look at this compound and give its reported Bacterial Biotransformation. CC(C)(C)NCC(O)COc1cccc2c1CC(O)C(O)C2 (stereo unspecified)
Reply: Compound NOT metabolized

Query: Look at this compound and give its reported Bacterial Biotransformation. CN(C)C(=O)Oc1cccc([N+](C)(C)C)c1.[Br-] [NEOSTIGMINE BROMIDE]
Reply: Compound NOT metabolized

Query: Look at this compound and give its reported Bacterial Biotransformation. Cc1nc(Nc2ncc(C(=O)Nc3c(C)cccc3Cl)s2)cc(N2CCN(CCO)CC2)n1 [DASATINIB ANHYDROUS]
Reply: Compound metabolized

Query: Look at this compound and give its reported Bacterial Biotransformation. CC(CCc1ccccc1)NCC(O)c1ccc(O)c(C(N)=O)c1 (stereo unspecified)
Reply: Compound NOT metabolized

Query: Look at this compound and give its reported Bacterial Biotransformation. CCc1cccc2c3c([nH]c12)C(CC)(CC(=O)O)OCC3 (stereo unspecified)
Reply: Compound metabolized

Query: Look at this compound and give its reported Bacterial Biotransformation. CCCCCNC(=N)N/N=C/c1c[nH]c2ccc(OC)cc12.O=C(O)/C=C\C(=O)O [TEGASEROD MALEATE]
Reply: Compound metabolized

Query: Look at this compound and give its reported Bacterial Biotransformation. `CC(=O)OCC(CCn1cnc2cnc(N)nc21)COC(C)=O`
Reply: Compound metabolized

Query: Look at this compound and give its reported Bacterial Biotransformation. `N=C(N)NC(=O)Cc1c(Cl)cccc1Cl`
Reply: Compound NOT metabolized

Query: Look at this compound and give its reported Bacterial Biotransformation. CCOC(=O)[C@H](CCc1ccccc1)N[C@@H](C)C(=O)N1CCC[C@H]1C(=O)O.O=C(O)/C=C\C(=O)O [ENALAPRIL MALEATE]
Reply: Compound NOT metabolized

Query: Look at this compound and give its reported Bacterial Biotransformation. CC(=O)OCC(=O)[C@@]1(OC(C)=O)[C@@H](C)C[C@H]2[C@@H]3C[C@H](F)C4=CC(=O)C=C[C@]4(C)[C@@]3(F)[C@@H](O)C[C@@]21C [DIFLORASONE DIACETATE]
Reply: Compound metabolized

Query: Look at this compound and give its reported Bacterial Biotransformation. `O=C([O-])C[C@H](O)C[C@H](O)/C=C/c1c(C2CC2)nc2ccccc2c1-c1ccc(F)cc1.O=C([O-])C[C@H](O)C[C@H](O)/C=C/c1c(C2CC2)nc2ccccc2c1-c1ccc(F)cc1.[Ca+2]`
Reply: Compound metabolized
